Target: SNAP-SCTR (Homo sapiens)
Sequence (P47872 23-440): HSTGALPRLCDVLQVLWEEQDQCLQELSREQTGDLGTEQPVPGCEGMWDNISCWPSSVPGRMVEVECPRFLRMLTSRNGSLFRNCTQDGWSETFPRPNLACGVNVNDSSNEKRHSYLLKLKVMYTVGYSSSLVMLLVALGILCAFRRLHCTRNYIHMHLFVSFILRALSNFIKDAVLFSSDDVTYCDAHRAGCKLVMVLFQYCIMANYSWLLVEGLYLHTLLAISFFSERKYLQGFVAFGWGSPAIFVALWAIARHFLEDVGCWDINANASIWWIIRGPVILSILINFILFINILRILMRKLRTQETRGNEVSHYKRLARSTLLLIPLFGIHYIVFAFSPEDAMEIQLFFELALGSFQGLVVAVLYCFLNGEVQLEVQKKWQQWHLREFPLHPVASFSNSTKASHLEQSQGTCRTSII
Experiment: TR-FRET SNAP-SCTR competition binding with Fluo-Sec, HEK-293 SNAP-SCTR membranes
measured attribute: EC50 (µM)
Return type: number; implicit unit µM.

Notebook: pull reported EC50 for SNAP-SCTR (Homo sapiens), entry CC[S+]([O-])c1nc(-c2cccc(OCc3ccccc3)c2)cc(C(F)(F)F)n1 (stereo not shown)
17

###

Target: SCTR (Homo sapiens)
Assay: SCTR PAM
Type: cell-based
measured attribute: pEC50
Please treat pEC50 as minus the base-10 logarithm of the molar concentration.

Given the entry CC[S+]([O-])c1nc(-c2cccc(OCc3ccccc3)c2)cc(C(F)(F)F)n1 (stereo not shown) , report its measured pEC50.
4.62

###

Target: SCTR (Homo sapiens, UniProt P47872)
Sequence (P47872 23-440): as above
Assay: SCTR Sec-FL
Assay type: cell-based
measured attribute: EC50
Give the value; after it, write the unit.

Requested field: EC50. Item: CC[S+]([O-])c1nc(-c2cccc(OCc3ccccc3)c2)cc(C(F)(F)F)n1 (stereo not shown) [BETP]
31 µM

###

Biological target: GLP-1R (Homo sapiens)
Sequence (P43220 24-463): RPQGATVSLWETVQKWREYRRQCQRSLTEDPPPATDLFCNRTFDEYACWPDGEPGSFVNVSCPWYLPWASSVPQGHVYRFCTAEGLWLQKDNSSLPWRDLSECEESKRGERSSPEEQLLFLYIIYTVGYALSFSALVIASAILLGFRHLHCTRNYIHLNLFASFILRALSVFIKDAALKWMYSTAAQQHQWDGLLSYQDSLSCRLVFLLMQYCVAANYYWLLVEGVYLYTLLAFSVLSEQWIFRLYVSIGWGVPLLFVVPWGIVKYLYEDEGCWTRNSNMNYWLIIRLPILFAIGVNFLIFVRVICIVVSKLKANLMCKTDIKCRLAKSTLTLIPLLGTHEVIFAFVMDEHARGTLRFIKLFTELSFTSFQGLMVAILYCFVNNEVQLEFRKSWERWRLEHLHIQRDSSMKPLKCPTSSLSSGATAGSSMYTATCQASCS
Experiment: GLP-1R PAM
Assay type: cell-based
measured attribute: EC50
Show the value, then the unit it is measured in.

Sample CC[S+]([O-])c1nc(-c2cccc(OCc3ccccc3)c2)cc(C(F)(F)F)n1 (stereo not shown) [BETP] — what was its EC50?
800 nM

###

Target: GLP-1R (Homo sapiens)
Experiment: GLP-1R agonist cAMP accumulation assay, GLP-1R-overexpressing HEK-293T cells
Type: cell-based
measured attribute: pEC50
Schema: pEC50 number; meaning minus log10 of the concentration expressed in molar units.

Entry under review: CC[S+]([O-])c1nc(-c2cccc(OCc3ccccc3)c2)cc(C(F)(F)F)n1 (stereo not shown) . Reported pEC50?
6.10
